assay system: T1, Ox-LDL binding to His9-hMSR1 (Homo sapiens, UniProt P21757)
T1 construct: human MSR1 extracellular domain expressed with a N-terminal nonahistidine tag; purchased R&D Systems 2708-MS
T1 sequence (P21757 77-451 limits assumed): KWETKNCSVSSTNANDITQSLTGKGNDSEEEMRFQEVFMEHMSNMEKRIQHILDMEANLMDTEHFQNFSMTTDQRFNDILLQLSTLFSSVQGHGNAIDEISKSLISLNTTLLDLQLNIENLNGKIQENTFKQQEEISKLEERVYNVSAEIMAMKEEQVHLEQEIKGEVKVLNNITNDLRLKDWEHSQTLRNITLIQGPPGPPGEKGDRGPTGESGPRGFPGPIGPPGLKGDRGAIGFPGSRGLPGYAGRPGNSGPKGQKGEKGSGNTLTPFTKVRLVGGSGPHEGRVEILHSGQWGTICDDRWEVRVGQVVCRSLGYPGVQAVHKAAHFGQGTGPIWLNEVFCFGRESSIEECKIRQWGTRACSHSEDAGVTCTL
run description: Competition sandwich ELISA, Ox-LDL
applied conditions: anti-MSR1 antibody 500 nM, Ox-LDL 10 nM
endpoint label: % Blocking of Ox-LDL binding to His9-hMSR1 (%)
The response must be a number in % with no trailing unit.

- molecule: "H1H21231N-N297Q: modified version of \"21231N (H1H21231N-N297Q) anti-MSR1 antibodies\" with \"a N297Q single point mutation\" (antibody, V domains shown) VH: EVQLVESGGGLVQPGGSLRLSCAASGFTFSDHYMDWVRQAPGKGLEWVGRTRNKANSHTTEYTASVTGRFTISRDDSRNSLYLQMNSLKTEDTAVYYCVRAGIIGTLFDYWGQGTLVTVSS VL: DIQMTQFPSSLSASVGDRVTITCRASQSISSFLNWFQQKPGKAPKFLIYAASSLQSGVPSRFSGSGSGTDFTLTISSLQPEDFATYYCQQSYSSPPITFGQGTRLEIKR"
  measurement units: "%"
  value reported: 26

Inquiry: Return reported % Blocking of Ox-LDL binding to His9-hMSR1; argument: H1H21227N: "Three anti-MSR1 antibodies ... (21227N, 21231N, 21234N) were produced with the original human Fcγ portion" (antibody, V domains shown) VH: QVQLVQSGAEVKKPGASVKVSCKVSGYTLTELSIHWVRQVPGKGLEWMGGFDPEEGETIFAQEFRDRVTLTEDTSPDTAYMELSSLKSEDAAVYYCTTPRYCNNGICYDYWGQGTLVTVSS VL: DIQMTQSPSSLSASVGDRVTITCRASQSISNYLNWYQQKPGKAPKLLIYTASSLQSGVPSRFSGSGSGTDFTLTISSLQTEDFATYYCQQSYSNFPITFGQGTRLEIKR
Reply text: 100
